- Measured Target: T1, recombinant human PD-1 Fc chimera (human, UniProt Q15116 25-167)
- T1 construct: Bought (R&D 1086-PD); Labelled with europium cryptate in the PD-L2 HTRF assay; also called human PD-1 (R&D Systems cat no. 1086-PD); human PD-1-huFc; not shown: human Fc of the bought chimera
- T1 sequence (Q15116 25-167, change not shown): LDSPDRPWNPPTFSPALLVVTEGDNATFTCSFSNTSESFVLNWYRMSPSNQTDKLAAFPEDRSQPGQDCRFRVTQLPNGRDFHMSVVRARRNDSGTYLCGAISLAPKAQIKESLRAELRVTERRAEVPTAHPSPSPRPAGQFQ
- Assay Protocol: BLI (Octet), PD-1-huFc on biosensor, 1:1 fit

Binder: Humabody VH 2.53 (VHH, human VH single domain antibody) VHH: EVQLVESGGGVVRPGGSLRLSCAASGFTFDDYAMSWVRQAPGKGLEWVSGITWNGGSTGYADSVKDRFTISRDNAKNSLYLQMNSLRAEDTALYYCVRDKYSYAWSYDDFDIWGQGTMVTVSS
kon: 1e+06 M⁻¹ s⁻¹
--
Binder: Humabody VH 2.37 (VHH, human VH single domain antibody) VHH: EVQLVESGGGVVRPGGSLRLSCAASGFTFDDYALSWVRQAPGKGLEWVSGITWNGGSTGYADSVKDRFTISRDNAKNSLYLQMNSLRAEDTALYYCVRDKYSYAWSYDGFDIWGQGTMVTVSS
kon: 450000 M⁻¹ s⁻¹
--
Binder: Humabody VH 1.37 (VHH, human VH single domain antibody) VHH: EVQLVESGGGLVQPGRSLRLSCAASGFTFDDYAFHWVRQAPGKDLEWVSGISWNGGSMGYADSVKGRFTISRDNAKNSLYLQMNSLRAEDTALYYCVREKGPGLTGSTADYYGLDAWGQGTMVTVSS
kon: 240000 M⁻¹ s⁻¹
--
Binder: Humabody VH 1.34 (VHH, human VH single domain antibody) VHH: EVQLVESGGGLVQPGRSLRLSCAASGFTFDDYAMHWVRQAPGKDLEWVSGISWNGGSQGYADSVKGRFTISRDNAKNSLYLQMNSLRAEDTALYYCVREKGPGLTGSTADYYGLDAWGQGTMVTVSS
kon: 190000 M⁻¹ s⁻¹
--
Binder: VH single domain antibody 2.1 (VHH, human VH single domain antibody; also called Humabody VH 2.1; clone 2.1) VHH: EVQLVESGGGVVRPGGSLRLSCAASGFTFDDYAMSWVRQAPGKGLEWVSGITWNGGSTGYADSVKDRFTISRDNAKNSLYLQMNSLRAEDTALYYCVRDKYSYAWSYDGFDIWGQGTMVTVSS
kon: 590000 M⁻¹ s⁻¹
--
Binder: Humabody VH 2.39 (VHH, human VH single domain antibody) VHH: EVQLVESGGGVVRPGGSLRLSCAASGFTFDDYAESWVRQAPGKGLEWVSGITWNGGSTGYADSVKDRFTISRDNAKNSLYLQMNSLRAEDTALYYCVRDKYSYAWSYDGFDIWGQGTMVTVSS
kon: 370000 M⁻¹ s⁻¹
--
Binder: Humabody VH 2.13 (VHH, human VH single domain antibody) VHH: EVQLVESGGGVVRPGGSLRLSCAASGFTFDDYAMSWVRQAPGKGLEWVSGITWNRGSTGYADSVKGRFTISRDNAKNSLYLQMNSLRAEDTALYYCVRDKYSYAWSYDDFDIWGQGTMVTVSS
kon: 1.3e+06 M⁻¹ s⁻¹
--
Binder: Humabody VH 1.33 (VHH, human VH single domain antibody) VHH: EVQLVESGGGLVQPGRSLRLSCAASGFTFDDYAMHWVRQAPGKDLEWVSGISWNGGSYGYADSVKGRFTISRDNAKNSLYLQMNSLRAEDTALYYCVREKGPGLTGSTADYYGLDAWGQGTMVTVSS
kon: 370000 M⁻¹ s⁻¹
--
Binder: Humabody VH 2.52 (VHH, human VH single domain antibody) VHH: EVQLVESGGGVVRPGGSLRLSCAASGFTFDDYAMSWVRQAPGKGLEWVSGITWNGGSTGYADSVKDRFTISRDNAKNSLYLQMNSLRAEDTALYYCVRDKYSYAWSYDVFDIWGQGTMVTVSS
kon: 670000 M⁻¹ s⁻¹
--
Binder: VH single domain antibody 1.1 (VHH, human VH single domain antibody (Humabody), purified through its C-terminal His tag; also called Humabody 1.1; clone 1.1) VHH: EVQLLESGGGSVQPGRSLRLSCAASGFTFDDHAMHWVRQAPGKGLEWVSGISWNSGSMGYADSVKDRFTISRDNAKSSLYLQMNSLRAEDTALYYCVREKGPGLTGSTADYYGLDVWGQGTMVTVSS
kon: 450000 M⁻¹ s⁻¹
